Origin of measurements: paper PMC5192466

Target: trypsin
Assay: enzyme inhibition kinetics (Dixon method); trypsin with BAPNA, α-chymotrypsin with BTEE as substrate; substrate concentrations 133 and 65 mM; both enzymes 215 nM; peptide 0 up to 3.2 mM; three parallel experiments
pKi: −log10 of the molar value.

{"columns": ["Binder", "pKi"],
 "data": [
  ["recombinant HCRG21, Kunitz-type peptide from the sea anemone Heteractis crispa (peptide) RGICSEPKVVGPCTAYFRRFYFDSETGKCTPFIYGGCEGNGNNFETLRACRAICRA", 6.70]
]}
